# target.desc: Kras and SOS1 (biotin-tagged human Kras loaded with GDP, His-tagged human SOS1) (Homo sapiens, UniProt P01116, G12D)
# Construct: made in house; host or cells: E. coli (stated for Kras only)
# Sequence (P01116 1-188 isoform P01116-2 G12D): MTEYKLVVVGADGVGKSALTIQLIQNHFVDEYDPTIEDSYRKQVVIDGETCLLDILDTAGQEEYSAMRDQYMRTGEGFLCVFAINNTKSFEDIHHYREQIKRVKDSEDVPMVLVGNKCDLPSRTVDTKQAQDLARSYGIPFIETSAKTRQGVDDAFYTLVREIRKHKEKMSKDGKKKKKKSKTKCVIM
# test.details: Protein-protein interaction inhibition between Kras and SOS1 (KrasGl2D-SOS PPI) using AlphaScreen
# Assay type: binding
# setup.conditions: AlphaScreen; biotin-tagged human Kras loaded with GDP, His-tagged human SOS1; read-out: KRAS G12D-SOS PPI IC50
Starred links: 1 amine or outer side, 2 acyl side, 3 side chain; linkers in the order of their positions; H or OH if unused. Positions of bridges follow the written chain, without caps; N, C: chain ends. Non-standard residues stand in square brackets, D forms with d. Residues, ends and D or L forms follow the SMILES beside them. *: point of attachment. hPhe(3,5-F2-4-CF3) = N[C@@H](CCc1cc(F)c(C(F)(F)F)c(F)c1)C(=O)O; hPhe(3-Cl-4-CF3) = N[C@@H](CCc1ccc(C(F)(F)F)c(Cl)c1)C(=O)O; NMePhe(3-Br) = CN[C@@H](Cc1cccc(Br)c1)C(=O)O; NMePhe(4-Me) = CN[C@@H](Cc1ccc(C)cc1)C(=O)O; NMedβ3hAla = C[C@H](CC(=O)[*:2])N(C)[*:1]; NMeGly(cPent) = CN[C@H](C(=O)O)C1CCCC1; Pro(4,4-F2) = O=C(O)[C@@H]1CC(F)(F)CN1; NMeCha = CN[C@@H](CC1CCCCC1)C(=O)O; NMeChg = CN[C@H](C(=O)O)C1CCCCC1; NMeI = CC[C@H](C)[C@H](NC)C(=O)O; NMeD = CN[C@@H](CC(=O)O)C(=O)O; NMeL = CN[C@@H](CC(C)C)C(=O)O; NMeV = CN[C@H](C(=O)O)C(C)C; d(β3hA) = C[C@@H](N)CC(=O)O; NMeS = CN[C@@H](CO)C(=O)O; Morpholide = C1CN(*)CCO1; NMeA = CN[C@@H](C)C(=O)O; Ac5c = NC1(C(=O)O)CCCC1; Aze = O=C(O)[C@@H]1CCN1; Isopentyl = CC(C)CC*; Sar = CNCC(=O)O
I'd appreciate it if you could supply IC50 values for the items below.

Exercise: Item under review: CC[C@H](C)[C@@H]1NC(=O)[C@H](CC(C)C)N(C)C(=O)C[C@@H](C(=O)N2CCOCC2)N(C)C(=O)[C@H](C2CCCCC2)N(C)C(=O)C2(CCCC2)NC(=O)[C@@H]2CC(F)(F)CN2C(=O)[C@H](CCc2cc(F)c(C(F)(F)F)c(F)c2)NC(=O)CN(C)C(=O)[C@H](CC2CCCCC2)N(C)C(=O)CN(C)C(=O)CN(C)C1=O [Compound 1337] ([NMeL]I[Sar][Sar][NMeCha][Sar][hPhe(3,5-F2-4-CF3)][Pro(4,4-F2)][Ac5c][NMeChg][NMeD]-Morpholide; lactam N-11) . Reported IC50?
Solution: 0.55 nM

Exercise: Another compound: CC[C@H](C)[C@@H]1NC(=O)[C@H](CC(C)C)N(C)C(=O)C[C@@H](C(=O)N(C)C)N(C)C(=O)[C@H]([C@@H](C)CC)N(C)C(=O)C2(CCCC2)NC(=O)[C@H](COCCC(C)C)N(C)C(=O)[C@H](CCc2ccc(C(F)(F)F)c(Cl)c2)NC(=O)CN(C)C(=O)[C@H](Cc2ccc(C)cc2)N(C)C(=O)[C@@H]2CCN2C(=O)[C@H](C)N(C)C1=O [Compound 27] ([NMeL]I[NMeA][Aze][NMePhe(4-Me)][Sar][hPhe(3-Cl-4-CF3)][NMeS](Isopentyl)[Ac5c][NMeI][NMeD]-NMe2; lactam N-11)
Solution: 3.3 nM

Exercise: Now give it for CC[C@H](C)[C@@H]1NC(=O)[C@H](C)N(C)C(=O)C[C@@H](C)NC(=O)[C@H](C2CCCC2)N(C)C(=O)C2(CCCC2)NC(=O)[C@@H]2CCCN2C(=O)[C@H](CCc2ccc(C(F)(F)F)c(Cl)c2)NC(=O)[C@H]2CCCN2C(=O)[C@H](CC2CCCCC2)N(C)C(=O)CN(C)C(=O)CN(C)C1=O [Compound 1543] (cyclo([Ac5c][NMeGly(cPent)][d(β3hA)][NMeA]I[Sar][Sar][NMeCha][dP][hPhe(3-Cl-4-CF3)]P)) too.
Solution: 160 nM

Exercise: What do we get for CC[C@H](C)[C@@H]1NC(=O)[C@H](CC(C)C)N(C)C(=O)C[C@@H](C)N(C)C(=O)[C@H](C(C)C)N(C)C(=O)C2(CCCC2)NC(=O)[C@@H]2CCCN2C(=O)[C@H](CCc2ccc(C(F)(F)F)c(Cl)c2)NC(=O)CN(C)C(=O)[C@H](Cc2cccc(Br)c2)N(C)C(=O)CN(C)C(=O)CN(C)C1=O [Compound 1597] (cyclo([Ac5c][NMeV][NMedβ3hAla][NMeL]I[Sar][Sar][NMePhe(3-Br)][Sar][hPhe(3-Cl-4-CF3)]P)) ?
Solution: 11 nM

Exercise: Then what about the compound CC[C@H](C)[C@@H]1NC(=O)[C@H](CC(C)C)N(C)C(=O)C[C@@H](C)N(C)C(=O)[C@H](C2CCCC2)N(C)C(=O)C2(CCCC2)NC(=O)[C@@H]2CCCN2C(=O)[C@H](CCc2ccc(C(F)(F)F)c(Cl)c2)NC(=O)CN(C)C(=O)[C@H](CC2CCCCC2)N(C)C(=O)CN(C)C(=O)CN(C)C1=O [Compound 420] (cyclo([Ac5c][NMeGly(cPent)][NMedβ3hAla][NMeL]I[Sar][Sar][NMeCha][Sar][hPhe(3-Cl-4-CF3)]P)) ?
Solution: 3.4 nM

----------
# target.desc: Kras and SOS1 (biotin-tagged human Kras loaded with GDP, His-tagged human SOS1) (Homo sapiens, UniProt P01116, G12D)
# Construct: made in house; host or cells: E. coli (stated for Kras only)
# test.details: Protein-protein interaction inhibition between Kras and SOS1 (KrasGl2D-SOS PPI) using AlphaScreen
# Assay type: binding
# setup.conditions: AlphaScreen; biotin-tagged human Kras loaded with GDP, His-tagged human SOS1; read-out: KRAS G12D-SOS PPI IC50
Positions of bridges follow the written chain, without caps; N, C: chain ends. Non-standard residues stand in square brackets, D forms with d. Residues, ends and D or L forms follow the SMILES beside them. *: point of attachment. hPhe(3,5-F2-4-CF3) = N[C@@H](CCc1cc(F)c(C(F)(F)F)c(F)c1)C(=O)O; hPhe(3-Cl-4-CF3) = N[C@@H](CCc1ccc(C(F)(F)F)c(Cl)c1)C(=O)O; 3Oxa8azabicyclo(3.2.1)octane = C1CC2COCC1N2*; NMePhe(3-Me) = CN[C@@H](Cc1cccc(C)c1)C(=O)O; NMeGly(cPent) = CN[C@H](C(=O)O)C1CCCC1; Phe(3-I) = N[C@@H](Cc1cccc(I)c1)C(=O)O; Phe(4-F) = N[C@@H](Cc1ccc(F)cc1)C(=O)O; Pro(4,4-F2) = O=C(O)[C@@H]1CC(F)(F)CN1; NMeGly(cBu) = CN[C@H](C(=O)O)C1CCC1; NMeCha = CN[C@@H](CC1CCCCC1)C(=O)O; NMeChg = CN[C@H](C(=O)O)C1CCCCC1; NMeD = CN[C@@H](CC(=O)O)C(=O)O; NMeL = CN[C@@H](CC(C)C)C(=O)O; NMeA = CN[C@@H](C)C(=O)O; NMeAib = CNC(C)(C)C(=O)O; Piperidide = C1CCN(*)CC1; Pyrrolidide = C1CCN(*)C1; Ac5c = NC1(C(=O)O)CCCC1; Aze = O=C(O)[C@@H]1CCN1; Sar = CNCC(=O)O
Give pIC50 for every item shown.
Notebook: values listed as pIC50 are -log10 of the concentration (mol/L).

Exercise: What value of pIC50 has been recorded for this entry: CC[C@H](C)[C@@H]1NC(=O)[C@H](CC(C)C)N(C)C(=O)C[C@@H](C(=O)N2CCCCC2)N(C)C(=O)[C@H](CC(C)C)NC(=O)C(C)(C)N(C)C(=O)[C@H](Cc2ccc(F)cc2)NC(=O)[C@H](Cc2cccc(I)c2)NC(=O)CN(C)C(=O)[C@H](CC2CCCCC2)N(C)C(=O)CN(C)C(=O)CN(C)C1=O [Compound 711] ([NMeL]I[Sar][Sar][NMeCha][Sar][Phe(3-I)][Phe(4-F)][NMeAib]L[NMeD]-Piperidide; lactam N-11)
Solution: 7.46

Exercise: Then CC[C@H](C)[C@@H]1NC(=O)[C@H](C2CCC2)N(C)C(=O)C[C@@H](C(=O)N2C3CCC2COC3)N(C)C(=O)[C@H](C2CCCCC2)N(C)C(=O)C2(CCCC2)NC(=O)[C@@H]2CCCN2C(=O)[C@H](CCc2ccc(C(F)(F)F)c(Cl)c2)NC(=O)CN(C)C(=O)[C@H](CC2CCCCC2)N(C)C(=O)CN(C)C(=O)CN(C)C1=O [Compound 701] ([NMeGly(cBu)]I[Sar][Sar][NMeCha][Sar][hPhe(3-Cl-4-CF3)]P[Ac5c][NMeChg][NMeD]-{3Oxa8azabicyclo(3.2.1)octane}; lactam N-11) ?
Solution: 9.16

Exercise: Moving on to CC[C@H](C)[C@@H]1NC(=O)[C@H](CC(C)C)N(C)C(=O)C[C@@H](C(=O)N2CCCC2)N(C)C(=O)[C@H](C2CCCC2)N(C)C(=O)C2(CCCC2)NC(=O)[C@@H]2CC(F)(F)CN2C(=O)[C@H](CCc2cc(F)c(C(F)(F)F)c(F)c2)NC(=O)CN(C)C(=O)[C@H](CC2CCCCC2)N(C)C(=O)CN(C)C(=O)CN(C)C1=O [Compound 1166] ([NMeL]I[Sar][Sar][NMeCha][Sar][hPhe(3,5-F2-4-CF3)][Pro(4,4-F2)][Ac5c][NMeGly(cPent)][NMeD]-Pyrrolidide; lactam N-11)
Solution: 9.33

Exercise: Also need CC[C@H](C)[C@@H]1NC(=O)[C@H](CC(C)C)N(C)C(=O)C[C@@H](C(=O)N(C)C)N(C)C(=O)[C@H](C2CCCC2)N(C)C(=O)C2(CCCC2)NC(=O)[C@H](Cc2cccc(C)c2)N(C)C(=O)[C@H](CCc2ccc(C(F)(F)F)c(Cl)c2)NC(=O)CN(C)C(=O)[C@H](CC2CCCCC2)N(C)C(=O)[C@@H]2CCN2C(=O)[C@H](C)N(C)C1=O [Compound 449] ([NMeL]I[NMeA][Aze][NMeCha][Sar][hPhe(3-Cl-4-CF3)][NMePhe(3-Me)][Ac5c][NMeGly(cPent)][NMeD]-NMe2; lactam N-11) , thanks.
Solution: 7.52

Origin of the recorded values: patent US12371454B2
